Assay System: chimeric Caspase-9 polypeptide
Sequence (as listed by the source, change not shown): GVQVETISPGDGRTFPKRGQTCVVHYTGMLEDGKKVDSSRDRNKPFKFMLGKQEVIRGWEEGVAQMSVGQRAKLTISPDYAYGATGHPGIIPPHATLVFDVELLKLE
Experiment Notes: Caspase mutant classes and basal activity (Table 3)
Type: cell-based, human
Experimental Setup: class heading of Table 3; ligand IC50

{"columns": ["Molecule", "IC50"],
 "data": [
  ["L329E (protein) GFGDVGALESLRGNADLAYILSMEPCGHCLIINNVNFCRESGLRTRTGSNIDCEKLRRRFSSLHFMVEVKGDLTAKKMVLALLELAQQDHGALDCCVVVILSHGCQASHLQFPGAVYGTDGCPVSVEKIVNIFNGTSCPSLGGKPKLFFIQACGGEQKDHGFEVASTSPEDESPGSNPEPDATPFQEGLRTFDQEDAISSLPTPSDIFVSYSTFPGFVSWRDPKSGSWYVETLDDIFEQWAHSEDLQSLLLRVANAVSVKGIYKQMPGCFNFLRKKLFFKTS", "higher IC50"],
  ["S195A (protein) GFGDVGALESLRGNADLAYILSMEPCGHCLIINNVNFCRESGLRTRTGSNIDCEKLRRRFASLHFMVEVKGDLTAKKMVLALLELAQQDHGALDCCVVVILSHGCQASHLQFPGAVYGTDGCPVSVEKIVNIFNGTSCPSLGGKPKLFFIQACGGEQKDHGFEVASTSPEDESPGSNPEPDATPFQEGLRTFDQLDAISSLPTPSDIFVSYSTFPGFVSWRDPKSGSWYVETLDDIFEQWAHSEDLQSLLLRVANAVSVKGIYKQMPGCFNFLRKKLFFKTS", "higher IC50"]
]}
